tested on: ACHN renal; assay: NCI-60 one-dose screen, 48 h; settings: 10 µM unless noted
This is part of a sample that, as a whole, favours compounds with a hit. Of some 83,000 tested, about 20% had one in any assay. Activity calls are given as the source filed them. Rule for the calls: active = growth percent below 10; inactive = the rest.
Your reply should match one of these outcome classes. true for active, false for inactive

Req: What outcome does the record of this test show for `N/C(=N\c1nc2c(Cl)cc(Cl)cc2s1)C(Cl)(Cl)Cl` ?
Resp: true

Req: Outcome? `CCCCCCNC(=O)Oc1ccc(/C(=C(/C)c2ccccc2)c2ccc(OCCN3CCCCCC3)cc2)cc1`
Resp: false

Req: Write down the call the test reported for this molecule. Item: `COc1ccc(NC2=C(Cl)C(=O)C(C)=C(C)C2=O)cc1OC`
Resp: false

Req: I'd appreciate the recorded outcome for CSCCC(C(=O)O)N1C(=O)/C(=C/c2ccc(O)c(O)c2)SC1=S (stereo not given) from this test.
Resp: false

Req: How was `O=C1Nc2ccc(Cl)cc2/C1=C/c1ccc(OCC(=O)c2ccc(Br)cc2)cc1` classified in this test?
Resp: false

Req: Field: outcome | Entry: `Cc1ccc2c(n1)C(=O)C(Cl)=C(Nc1cccc(C(C)C)c1)C2=O`
Resp: false

Req: I'd appreciate the recorded outcome for `C#C[C@]1(O)CC[C@H]2[C@@H]3CC=C4c5sc(-c6ccc(F)cn6)nc5CC[C@]4(C)[C@H]3CC[C@@]21C` from this test.
Resp: false

Req: Would you mind telling me which call this test gave C#Cc1nc(C2=C(C)C(O)/C(=N/O)C2)cs1 (stereo not given) ?
Resp: false

Req: Each molecule tested received a call. Report the one for `Cc1ccc(/C=C/c2nn3c(-c4ccco4)nnc3s2)cc1C` .
Resp: false

Req: // return assay outcome for O=C1Nc2ccccc2Oc2ccc(S(=O)(=O)CC3CO3)cc21 (stereo not given)
Resp: false
